Several publications report pIC50 on cGMP-dependent 3',5'-cyclic phosphodiesterase (Homo sapiens, UniProt O00408); those values are gathered here.
Sequence (O00408 whole entry): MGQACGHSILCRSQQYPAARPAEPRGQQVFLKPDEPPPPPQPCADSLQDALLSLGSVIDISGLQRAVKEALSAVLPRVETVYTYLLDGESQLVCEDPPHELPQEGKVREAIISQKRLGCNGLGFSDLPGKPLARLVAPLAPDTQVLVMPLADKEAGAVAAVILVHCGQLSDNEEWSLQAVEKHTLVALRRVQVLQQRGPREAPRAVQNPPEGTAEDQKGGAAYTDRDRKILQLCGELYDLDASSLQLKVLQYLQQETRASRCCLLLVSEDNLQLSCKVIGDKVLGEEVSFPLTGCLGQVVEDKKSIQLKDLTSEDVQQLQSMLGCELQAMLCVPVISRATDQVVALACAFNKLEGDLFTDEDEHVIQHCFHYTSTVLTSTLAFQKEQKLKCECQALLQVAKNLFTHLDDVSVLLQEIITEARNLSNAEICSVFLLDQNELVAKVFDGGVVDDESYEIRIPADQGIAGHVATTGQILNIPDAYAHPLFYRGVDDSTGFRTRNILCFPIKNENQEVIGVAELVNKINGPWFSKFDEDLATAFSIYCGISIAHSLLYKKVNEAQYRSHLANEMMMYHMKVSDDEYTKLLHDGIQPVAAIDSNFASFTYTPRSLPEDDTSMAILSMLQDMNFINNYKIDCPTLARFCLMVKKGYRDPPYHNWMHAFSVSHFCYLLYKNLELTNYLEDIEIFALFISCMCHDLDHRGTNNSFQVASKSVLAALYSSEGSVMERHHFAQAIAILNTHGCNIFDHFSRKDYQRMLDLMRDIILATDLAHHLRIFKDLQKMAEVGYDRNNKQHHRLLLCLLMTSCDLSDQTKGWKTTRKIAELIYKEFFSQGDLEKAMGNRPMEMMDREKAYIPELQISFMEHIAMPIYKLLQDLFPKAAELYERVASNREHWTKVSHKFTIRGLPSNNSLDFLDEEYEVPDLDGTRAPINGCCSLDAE
pIC50: −log10 of the molar value.
reportedEndpoint: pIC50

entrySmiles	reportedEndpoint	endpointResult
CCCOCCn1c(=O)c(N[C@H]2CC[C@H](O)CC2)nc2cnc(-c3ccc(OC)nc3)cc21	pIC50	< 5.70
OCC1CCN(c2nccnc2Oc2ccc(Nc3nc4ccccc4o3)cc2)CC1	pIC50	< 5.00
Cc1nc(-c2cnn(C)c2-c2ccc(C(F)(F)F)cc2)c2c(N3CC(F)C3)ncnn12	pIC50	9.20
